Assay type: physicochemical
experimental-setup: ThT fluorescence relative to blank (42.1851851851852 a.u.)

{"columns": ["substance", "Tht rel to blank (42.1851851851852)"],
 "data": [
  ["KIKQII [msis21]", 1.001],
  ["QCKFKQFFNMWQ [CK10]", 25.38],
  ["RGDKIKIQINM [MG8a / CN17]", 9.126],
  ["RGDKIKIQINMWQ [MG9a]", 1.781],
  ["KIKQIINMWQ [JG2]", 4.945],
  ["RGDKIKIQIC [MG7/CN1]", 19.76],
  ["RGDCKIKIQINM [TM45]", 1.835],
  ["KIKQIINM [JGA2]", 1.176],
  ["KIKIKIKIYYYY [JR7]", 1.259],
  ["CEIEIQINM [TM144]", 5.13],
  ["RGDSKIKIQIC [TM113 / RC11]", 13.8],
  ["QCKAKAQA [CK24]", 1.319],
  ["QCKIKIQINM [CK2]", 2.548],
  ["KFKFQFW [TM71]", 3.529],
  ["QCKIKQIINM [CK5]", 23.32],
  ["KIKIQINMW [JGB1 /TM85]", 4.61],
  ["KIKIQIII [TG7]", 2.287],
  ["KIKIQII [TG1 / (KM4)]", 1.392],
  ["KFKQFFNMWQ [JG5]", 1.589],
  ["QCKAKAQANMWQ [CK22]", 1.496],
  ["CEIEIQINMWQ [TM143]", 3.705],
  ["CKIKIQI [MG3b]", 3.939],
  ["QCKIKQIINMWQ [reference compound]", 3.802],
  ["KAKAKAQA [TG15]", 1.151],
  ["ILKNLSRSRKIKIQINMWQ [TM92]", 3.339],
  ["CKFKQFFNM [CK14]", 45.97],
  ["EIEIQINM [TM95 / (TM75)]", 1.473],
  ["CKAKAQANMWQ [BL8]", 1.86],
  ["KAKAQA [JJA2 / TM153]", 1.172],
  ["KVKVQVVV [TG8]", 0.8863],
  ["KIKIQIC [TM112 / CN11]", 4.12],
  ["KVKVQVV [TG2]", 1.263],
  ["RGDCKFKFQF [TM64/ CN15]", 6.788],
  ["CKFKFQF [BL4]", 2.251],
  ["EIEIQINMWQ [VH8]", 4.145],
  ["CKFKFQFW [TM72]", 1.802],
  ["CKAKAQANM [BL9]", 1.249],
  ["KIKQIIN [JGA3]", 1.148],
  ["KLKLQLL [TG4 / (KM2)]", 0.8415]
]}

----------
assay-name: Aggregate analysis by widefield fluorescence microscopy
Format: physicochemical
experimental-setup: Fig S8 panels A, C
endpoint-name: Log 10 Number of aggregates in 3 * (1330 µm *1330 µm)

{"columns": ["substance", "value-measured"],
 "data": [
  ["KIKQIINMWQ [JG2]", 1.591],
  ["HHHHKIKIKIKIYYYY [TM6]", 2.1683],
  ["KIKIQIN [JGB3]", 0.6021],
  ["KWKWQW [KB3]", 1.442],
  ["CKFKQFFNM [CK14]", 2.848],
  ["KFKFQFNMWQ [JG4]", 1.806],
  ["KIKQIIN [JGA3]", 1.067],
  ["CKFKFQFNM [BL3]", 2.2313],
  ["HHHHKIKIKIKIWWWW [TM4]", 2.649],
  ["CKIKIQI [MG3b]", 2.501],
  ["CQFQFQF [QBL4]", 1.6596],
  ["QCKIKQIINMWQ [reference compound]", 2.611],
  ["CKFKFQF [BL4]", 2.108],
  ["CKIKQIINMWQ [MG5a / CK17]", 2.289],
  ["RGDSGGGGGGKIKIQIC [TM114 / RC17]", 1.857]
]}

----------
Assay type: physicochemical
experimental-setup: ThT-active if fluorescence at least twice the control
This listing pairs substances with measured ThT Cat. / ThT-Fluorescence (categorical).
endpoint-name: ThT Cat. / ThT-Fluorescence (categorical)

{"columns": ["substance", "value-measured"],
 "data": [
  ["CRFRFHFH", "0 (ThT-inactive (N-Fold <2))"],
  ["CKIKQIINM", "1 (ThT. Cat is 1, if Rel. ThT >2)"],
  ["CRLRVGVS", "0 (ThT-inactive (N-Fold <2))"],
  ["KNDKND", "0 (ThT-inactive (N-Fold <2))"],
  ["FDPFDPFDP", "0 (ThT-inactive (N-Fold <2))"],
  ["RGECKFKFQF", "1 (ThT. Cat is 1, if Rel. ThT >2)"],
  ["HGEHGEHGE", "0 (ThT-inactive (N-Fold <2))"],
  ["KFKFQFN", "0 (ThT-inactive (N-Fold <2))"],
  ["KIKIQIW", "1 (ThT. Cat is 1, if Rel. ThT >2)"],
  ["CEFEFQF", "0 (ThT-inactive (N-Fold <2))"],
  ["KIKIKIKI", "1 (ThT. Cat is 1, if Rel. ThT >2)"],
  ["CKAKAQANM", "0 (ThT-inactive (N-Fold <2))"],
  ["CKIKIQINMW", "0 (ThT-inactive (N-Fold <2))"],
  ["MKVIFLKDVKG [reference compound]", "0 (ThT-inactive (N-Fold <2))"],
  ["RCELARTLKR [reference compound]", "0 (ThT-inactive (N-Fold <2))"],
  ["KLVFFAK [reference compound]", "0 (ThT-inactive (N-Fold <2))"],
  ["KIKIQINMWWWQ", "0 (ThT-inactive (N-Fold <2))"],
  ["IKVAVKIKIQINM", "0 (ThT-inactive (N-Fold <2))"],
  ["KIWIWIW", "1 (ThT. Cat is 1, if Rel. ThT >2)"],
  ["HGDKCHGDKC", "0 (ThT-inactive (N-Fold <2))"],
  ["VQIVYK [reference compound]", "0 (ThT-inactive (N-Fold <2))"],
  ["HLHLPLL", "0 (ThT-inactive (N-Fold <2))"],
  ["QCKFKQFFNMWQ", "1 (ThT. Cat is 1, if Rel. ThT >2)"],
  ["KVKGVGK", "0 (ThT-inactive (N-Fold <2))"],
  ["KFKFQFFF", "1 (ThT. Cat is 1, if Rel. ThT >2)"],
  ["RGEKIKIQINM", "1 (ThT. Cat is 1, if Rel. ThT >2)"],
  ["RGDKIKIQINMC", "0 (ThT-inactive (N-Fold <2))"],
  ["HHHHKIKIKIKIWWWW", "1 (ThT. Cat is 1, if Rel. ThT >2)"],
  ["NMWQKAKAQA", "1 (ThT. Cat is 1, if Rel. ThT >2)"],
  ["RGDSKIKIQIC", "1 (ThT. Cat is 1, if Rel. ThT >2)"],
  ["KVWWNF", "0 (ThT-inactive (N-Fold <2))"],
  ["QCKIKIQINMWQ", "1 (ThT. Cat is 1, if Rel. ThT >2)"],
  ["KIKIQINMAQ", "0 (ThT-inactive (N-Fold <2))"],
  ["KIKIQINM", "0 (ThT-inactive (N-Fold <2))"],
  ["EIEIQINM", "0 (ThT-inactive (N-Fold <2))"],
  ["NMWQKIKIQI", "1 (ThT. Cat is 1, if Rel. ThT >2)"]
]}

----------
assay-name: Aggregate analysis by widefield fluorescence microscopy
Format: physicochemical
experimental-setup: Fig S8 panels A, C
endpoint-name: log Total Area of all particles in 3 * (1330 µm *1330 µm)

{"columns": ["substance", "value-measured"],
 "data": [
  ["HIHIQIC [CN12]", 4.397],
  ["CHLHLQL [CN9]", 4.075],
  ["KIKIQIC [TM112 / CN11]", 3.282],
  ["QCKIKIQINMWQ [EF-C opt]", 3.927],
  ["CKAKAQANMWQ [BL8]", 3.735],
  ["HHHHKIKIKIKIYYYY [TM6]", 4.023],
  ["CKIKIQI [MG3b]", 4.27],
  ["RGDSGGGGGGKIKIQIC [TM114 / RC17]", 4.429],
  ["KIKIQIN [JGB3]", 2.897],
  ["CKIKQIINMWQ [MG5a / CK17]", 4.553],
  ["CKWKWQW [KB4]", 3.921],
  ["CKFKQFFNM [CK14]", 4.34],
  ["CQFQFQF [QBL4]", 3.523],
  ["CKIKQII [MG4a]", 3.923],
  ["HHHHKIKIQINMYYYY [TM16]", 4.356],
  ["KFKFQFNMWQ [JG4]", 4.584],
  ["KIKQIINMWQ [JG2]", 4.191],
  ["KIKQIIN [JGA3]", 2.779],
  ["CKFKQFF [CK15]", 4.165],
  ["CSISIQI [TM141]", 4.142]
]}
